target: T1, cynomolgus NKp46 (cynomolgus monkey, UniProt Q95JB9 22-306); assay: flow cytometry, HEK293F cells transfected with cyno NKp46
T1 construct: also called cyno NKp46; cynomolgus monkey NKp46
T1 sequence (Q95JB9 22-306 limits assumed): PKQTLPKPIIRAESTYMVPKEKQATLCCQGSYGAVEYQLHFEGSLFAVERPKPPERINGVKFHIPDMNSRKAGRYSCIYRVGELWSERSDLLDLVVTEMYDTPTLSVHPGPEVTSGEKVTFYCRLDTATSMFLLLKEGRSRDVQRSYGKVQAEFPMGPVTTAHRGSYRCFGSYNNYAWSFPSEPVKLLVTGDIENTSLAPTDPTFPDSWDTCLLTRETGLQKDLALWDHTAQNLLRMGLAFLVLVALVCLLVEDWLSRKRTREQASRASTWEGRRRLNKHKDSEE
pKd: −log10 of the molar value.
measured-attribute: pKd

NKp46-hz5D7v11-Fc* (Fc fusion, VHH-Fc fusion with an IgG1 Fc lacking a hinge (Fc*)) EVQLVESGGGEVQPGGSLRLSCAASGRTFASAAMGWFRQAPGKEREFVAAISRSDDTYYADSVKGRFTISRDNAKNTVYLQMSSLRAEDTAVYYCAAVVPTYGSNIYVYSAAYNYWGQGTLVTVKPGGGGPSVFLFPPKPKDTLMISRTPEVTCVVVDVSHEDPEVKFNWYVDGVEVHNAKTKPREEQYNSTYRVVSVLTVLHQDWLNGKEYKCKVSNKALPAPIEKTISKAKGQPREPQVYTLPPSRDELTKNQVSLTCLVKGFYPSDIAVEWESNGQPENNYKTTPPVLDSDGSFFLYSKLTVDKSRWQQGNVFSCSVMHEALHNHYTQKSLSLSPG	8.73

meta.source: patent US20240376198A1
